Examples of binders with documented koff follow.
TESTED_ON: T1, human IL-25 expressed with a C-terminal myc-myc-hexahistidine tag (human)
T1 construct: also called human IL-25-MMH; hIL-25-MMH
T1 chain: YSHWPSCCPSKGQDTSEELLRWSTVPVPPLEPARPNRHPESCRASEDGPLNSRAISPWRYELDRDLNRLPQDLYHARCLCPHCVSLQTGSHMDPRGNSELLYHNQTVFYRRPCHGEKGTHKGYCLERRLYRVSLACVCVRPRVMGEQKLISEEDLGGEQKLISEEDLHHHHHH
PROTOCOL_SUMMARY: SPR Biacore, captured mAb, 25°C;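 further: biacore 4000 SPR with IL-25-MMH as analyte over purified anti-IL-25 antibodies, association and dissociation rates derived from fitting sensorgrams to a 1:1 binding model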
Answer with a number only, understood to be in s⁻¹.

{"BINDER": "H4H10871P (antibody, human IgG4, V domains shown) VH: QVQLVQSGAEVMKPGASVKVSCKSSDFAFTTYGISWVRQAPGQGLEWMGWISAYNGNTNYEQRFQGRITMTTDTSTTTVYMELRSLRSDDTAVYYCARDPDYCSSNTCSDAFDLWGQGTMVTVSS VL: DIQMTQSPSSLSASVRDRVTITCRASQGITNYLAWYQQKPGKVPKVLIYAASTLQSGVPSRFSGSGSGTEFTLAISSLQPEDVATYFCQQYGSAPWTFGQGTKVEIK", "koff (s⁻¹)": "6.38e-05"}
{"BINDER": "H4H10861P (antibody, human IgG4, V domains shown) VH: QVQLQESGPGLVKPSETLSLTCTVSGASISNYYWSWIRQPPGKGLEWIGYIFYSGNTNYNPSLKSRVTISVDTSKNQFSLKLSSVTAADTAVYYCARVRFSDYELNWFDPWGQGTLVTVSS VL: DIVMTQSPDSLAVFLGERATINCRSSQSVFLGSNNKNYLAWYQQKPGQPPKLLIYWASSRESGVPDRFSGSGSGTDFTLTINSLQAEDVAVYYCQQYFITPLTFGGGTKVEIK", "koff (s⁻¹)": "2.34e-05"}
{"BINDER": "H4H10907P (antibody, human IgG4, V domains shown) VH: EVQLVESGGGLVQPGGSLRLSCAASGFTFSNYDIHWVRQVPGKGLEWISTIGSAGDTFYPGSVKGRFTISRENAKNSLYLQMNSLRAGDSAVYYCARGDNWNYVSWFFDLWGRGTLVTVSS VL: DIQLTQSPSFLSTSVGDRVTITCWASQDISSFLAWYQQKPGKAPKLLIYAASVLQSGVPSRFSGSGSGTEFTLTISSLQPEDFATYYCQQVNSYPITFGQGTRLEIK", "koff (s⁻¹)": "6.5e-05"}

Then this binder:
// koff lookup, binder = H4H10863P (antibody, human IgG4, V domains shown) VH: QVQLVQSGAEVKKPGASVKVSCKASGYTFSSYGISWVRQAPGQGLEWMGWISAYNDNTQYAQKFQGRVTMTTDTSTSTAYMELRSLRSDDTAVYYCARVPLQWFGESFDHWGQGTLVTVSS VL: DIQMTQSPSSLSASVGDRVTITCRASQDINNYLNWFQQKPGKAPKLLIFSTSSLQSGVPSRFSGSGSGTDFTLTISSLQSEDFATYYCQQTFITPLTFGGGTKVEIK , result: 7.25e-05
